This collection of values is drawn from patent US20250025440A1.

Molecular target: full-length HPV E6 binding to human Caspase 8 (Human papillomavirus type 16)
Construct: made in house; host or cells: E. coli
Sequence (P03126 whole entry): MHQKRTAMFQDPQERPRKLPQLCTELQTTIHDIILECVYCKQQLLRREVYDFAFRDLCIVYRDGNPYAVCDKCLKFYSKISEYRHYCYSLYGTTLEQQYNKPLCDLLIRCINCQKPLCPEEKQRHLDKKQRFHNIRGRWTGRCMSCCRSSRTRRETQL
Settings: read-out: IC50 against E6-Caspase 8
measured_property: IC50

>>> df
                                   compound                             system_tested  endpoint_value
0  O=c1c(O)c(-c2cc(O)c(O)c(O)c2)oc2cc(O)cc(O)c12 [myricetin, reference compound]  full-length HPV E6 binding to human Caspase 8 (Human papillomavirus type 16)          4.6 µM

----------
pIC50: −log10 of the molar value.
Read-out record for E6 binding to E6AP (GST-E6 and His6-E6AP) (Human papillomavirus type 16, UniProt P03126): pIC50
measured_property: pIC50

compound	system_tested	measured_property	endpoint_value
O=c1c(O)c(-c2cc(O)c(O)c(O)c2)oc2cc(O)cc(O)c12 [myricetin, reference compound]	E6 binding to E6AP (GST-E6 and His6-E6AP) (Human papillomavirus type 16, UniProt P03126)	pIC50	5.25
CC(C)=CCC[C@]1(C)C=Cc2c(O)c3c(c(CC=C(C)C)c2O1)O[C@]12C(=C[C@@H]4C[C@H]1C(C)(C)O[C@@]2(C/C=C(/C)C(=O)O)C4=O)C3=O [gambogic acid]	E6 binding to E6AP (GST-E6 and His6-E6AP) (Human papillomavirus type 16, UniProt P03126)	pIC50	5.77
